- System: HOP-92 NSCLC
- Assay Remarks: NCI tumour cell line growth inhibition, 48 h; in the data active = GI50 below about 0.43 µM; inactive = the rest
# output must be one of YES (active), NO (inactive)

# example entries with known answers
O=C(c1ccco1)c1nc2cc(C(F)(F)F)ccc2[n+]([O-])c1C(F)(F)F | NO
O=C1NC(=O)[C@@H](c2c[nH]c3ccccc23)[C@@H]1c1c[nH]c2ccccc12 | NO
Nc1nccc2c1ccn2-c1cccc(NC(=O)c2ccc(N3CCOCC3)c(C(F)(F)F)c2)c1 | YES
Cc1ccc2nc3c(n2c1)C(=O)C(=O)c1ccccc1-3 | NO
CC[C@H](C)[C@H](NC(=O)NC(C)(C)C)C(=O)N(C)[C@H](C[C@@H](OC(C)=O)c1nc(C(=O)N[C@@H](Cc2ccccc2)C[C@H](C)C(=O)OC)cs1)C(C)C | NO

Challenge: What did this assay record as the result for COc1ccc(C(=O)/C=C/c2cc(-c3ccc4c(c3)OCO4)n[nH]2)cc1OC ?
Response given: NO

Challenge: What did this assay record as the result for COc1ccc(/C=C\c2cc(OC)c(OC)c(OC)c2)cc1OCC(=O)Nc1nc2ccccc2s1 ?
Response given: YES

Challenge: What did this assay record as the result for C[C@@H](Oc1cc(-n2cnc3ccc(OCC4CCN(C)CC4)cc32)sc1C(N)=O)c1ccccc1Cl ?
Response given: YES

Challenge: What did this assay record as the result for CCOC(=O)c1ccccc1SC(C[N+](=O)[O-])c1ccccc1 (centres undefined) ?
Response given: NO

====

- Tested on: SK-OV-3 ovarian
- Assay Remarks: NCI tumour cell line growth inhibition, 48 h
Quantity: TGI

Hey, quick one: what's TGI for each of these?
1. OCC1OC(c2ccccc2)CC1O (stereo not given)
2. COc1cc(O)cc(O)c1C(=O)CC(Cl)(Cl)Cl

Response given:
1. > 100 µM
2. > 100 µM

Hey, quick one: what's TGI for each of these?
1. C[N+](C)(C)CC(CC(=O)[O-])C1CC1 (stereo not given)
2. CC[C@H]1CN(C)[C@H]2Cc3c([nH]c4ccccc34)C(=O)C[C@H]1C2C(=O)OC (stereo not given in full)
3. Cc1ccc(/C=C/C(=O)c2ccc([N+](=O)[O-])cc2)cc1
4. CC(=O)c1ccc2c3c1O[C@H]1c4[nH]c5ccccc5c4C[C@@]4(O)[C@@H](C2)N(CC2CC2)CC[C@]314
5. O=C1c2cccc3c(Cl)ccc(c23)C(=O)N1CCCN1CCN(CCCN2C(=O)c3cccc4c(Cl)ccc(c34)C2=O)CC1
6. O=C(Cc1csc2nc(-c3ccc(Br)cc3)cn12)N/N=C/c1ccc(Cl)cc1Cl

Response given:
1. > 100 µM
2. > 100 µM
3. > 100 µM
4. 35.9 µM
5. > 100 µM
6. > 100 µM

Hey, quick one: what's TGI for each of these?
1. N#CCc1nc2cc(C(F)(F)F)ccc2s1
2. c1ccc2c(c1)Sc1ccccc1N2C1CN2CCC1CC2 (stereo not given)
3. O=S1c2ccccc2NC(c2ccc3ccccc3c2)CC1c1ccccc1 (stereo not given)

Response given:
> 100 µM
35.4 µM
> 100 µM

====

- System: M14 melanoma
- Assay Remarks: NCI tumour cell line growth inhibition, 48 h
Quantity: TGI

See these solved cases before continuing.
CCOC(=O)c1ccc(N(C=O)CCC(=O)CCl)cc1 | 1.5 µM
CC(=O)N1C(Nc2cccc3nc(C)ccc23)CCN1c1ccccc1 (configuration not stated) | > 10 µM
CC(C)C1=C(Cc2ccccc2)C(=O)O/C1=C\c1ccc(O)c(Cl)c1 | 31.3 µM
CC[C@H](C)[C@H](NC(=O)NC(C)(C)C)C(=O)N(C)[C@H](C[C@@H](OC(C)=O)c1nc(C(=O)N[C@@H](Cc2ccccc2)C[C@H](C)C(=O)OC)cs1)C(C)C | 2.08 µM
O=C(c1ccccc1)c1c(C(F)(F)F)n([O-])c2cc(F)c(F)cc2[n+]1=O | 1.49 µM

Hey, quick one: what's TGI for each of these?
1. Cc1ccc2c(=O)cc(Cc3csc4ccccc34)[nH]c2n1
2. CCn1c(=O)c2c3ccc(OC)cc3[nH]c2c2ccc(OC)cc21
3. C[C@]12CC[C@H](O)CC1=CC[C@@H]1[C@@H]2CC[C@]2(C)C(=O)/C(=C/c3ccc([N+](=O)[O-])cc3)C[C@@H]12
4. CCOC(=O)C(NC(=O)CC)(Nc1ccc(S(=O)(=O)Nc2ccc(OC)nn2)cc1)C(F)(F)F (configuration not stated)

Response given:
1. > 100 µM
2. > 100 µM
3. > 100 µM
4. > 100 µM

Hey, quick one: what's TGI for each of these?
1. CC1C(C#N)(C#N)C(C#N)=C(N)C1(C)[N+](=O)[O-] (configuration not stated)
2. Cc1c2cccc-2c(OCCOC(=O)n2ccnc2)cc2c1[nH]c1ccccc12
3. COc1ccccc1NC(=O)C1=C(C)NC(C)=C(C(=O)Nc2ccccc2OC)C1c1cccc2ccccc12

Response given:
1: > 100 µM; 2: 10.5 µM; 3: > 100 µM

Hey, quick one: what's TGI for each of these?
1. NCCS(=O)(=O)O
2. CS(=O)(=O)OCC1CCCCCCCCCCC12SCCCS2 (configuration not stated)

Response given:
["> 100 µM", "> 100 µM"]

Hey, quick one: what's TGI for each of these?
1. S=C(N/N=C(\C(=N/NC(=S)N1CCCCC1)c1ccccn1)c1ccccn1)N1CCCCC1
2. COc1cc2[nH]c(=O)c3cc(C)cc4c(Cl)nc(c1OC)c2c43
3. CO[C@]12CC(=O)C3(C(C[C@H]4CC5CC[C@H]6C[C@@H](OC(C)=O)CC[C@]6(OC(C)=O)C5C[C@@]43C)C1)C1C[C@H]3[C@@H]4CC[C@H]5C[C@@H](OC(C)=O)CC[C@]5(OC(C)=O)[C@H]4CC[C@]3(C)C12 (some centres not stated)
4. C[N+]1([O-])[C@H]2CC(OC(=O)[C@H](CO)c3ccccc3)C[C@H]1[C@H]1O[C@H]12 (some centres not stated)
5. Nc1nc(-c2ccc(Cl)cc2)cc(-c2ccc(Cl)cc2)c1-c1nc2ccccc2o1
6. N#Cc1ccc(C2Oc3ccc(Cl)cc3C=C2[N+](=O)[O-])cc1 (configuration not stated)
7. COC1C(CO)OC(n2c3c(Cl)cccc3c3c4c(c5c6cccc(Cl)c6[nH]c5c32)C(=O)NC4=O)C(O)C1O (configuration not stated)
8. COc1cc(C(O)C(=O)c2cnc3cc([N+](=O)[O-])ccc3n2)ccc1O (configuration not stated)

Response given:
1: 50.3 µM; 2: > 100 µM; 3: > 100 µM; 4: > 100 µM; 5: 34.4 µM; 6: 2.73 µM; 7: 10.7 µM; 8: > 100 µM
